# Experiment: ATG_Sox_CIS: Attagene CIS-FACTORIAL HepG2 Assay for human SRY-box transcription factor (SOX) (AID 2282960)
# Experimental Setup: HepG2 Attagene cis-factorial SOX reporter, mRNA; actives raise or lower the signal
# Method: ATG_CIS is a cell-based, multiplexed-readout assay that uses HepG2, a human liver cell line, with measurements taken at 24 hours after chemical dosing in a 24-well plate.ATG_Sox_CIS is one of 52 assay component(s) measured or calculated from the ATG_CIS assay. […] This assay endpoint, ATG_Sox_CIS, was analyzed with bidirectional fitting relative to DMSO as the negative control and baseline of activity. […]
The source made the active and inactive calls. The calls were made as follows: active = hit-call score of the fitted dose curve at least 0.9, where 1 is the maximum; inactive = score below 0.9.

Compound: COc1cc(OC)nc(Oc2cccc(Oc3nc(OC)cc(OC)n3)c2C(=O)O)n1
AC50: inactive
--
Compound: O=c1[nH]c(Cl)c(Cl)cc1Cl
AC50: inactive
--
Compound: CCOP(=O)(OCC)Oc1ccc([N+](=O)[O-])cc1
AC50: inactive
--
Compound: Oc1ccc(C2(c3ccc(O)cc3)c3ccccc3-c3ccccc32)cc1
AC50: inactive
--
Compound: Cl/C=C\CCl
AC50: inactive
--
Compound: Cc1cc(C)c(C2=C(OC(=O)CC(C)(C)C)C3(CCCC3)OC2=O)c(C)c1
AC50: inactive
--
Compound: CCCCCc1cc(O)cc(O)c1
AC50: inactive
--
Compound: CC(C)(c1cc(Cl)c(O)c(Cl)c1)c1cc(Cl)c(O)c(Cl)c1
AC50: inactive
--
Compound: c1ccc(P(c2ccccc2)c2ccccc2)cc1
AC50: inactive
--
Compound: O=[N+]([O-])O.O=[N+]([O-])O.[Cd]
AC50: 1.31 µM (active)
--
Compound: CC1OC(C)OC(C)O1 (configuration not stated)
AC50: inactive
--
Compound: N#CCCCl
AC50: inactive
--
Compound: COCC(=O)N(c1c(C)cccc1C)N1CCOC1=O
AC50: inactive
--
Compound: CN(C)C(=O)C(c1ccccc1)c1ccccc1
AC50: inactive
--
Compound: CN1C[C@H](C(=O)N[C@]2(C)O[C@@]3(O)[C@@H]4CCCN4C(=O)[C@H](Cc4ccccc4)N3C2=O)C=C2c3cccc4[nH]cc(c34)C[C@H]21
AC50: inactive
--
Compound: O=[N+]([O-])c1cc([N+](=O)[O-])c2ccccc2c1
AC50: inactive
--
Compound: CN(C)N
AC50: inactive
--
Compound: O=C=Nc1ccccc1
AC50: inactive
--
Compound: CC(C)C(=O)Cl
AC50: inactive
--
Compound: CN(N=O)c1ccccc1
AC50: inactive
--
Compound: CCC(C)c1cc([N+](=O)[O-])cc([N+](=O)[O-])c1OC(=O)C=C(C)C (configuration not stated)
AC50: 53.7 µM (active)
--
Compound: C[N+](C)(C)CC(=O)O
AC50: inactive
--
Compound: C[C@]12CC[C@H](O)C[C@H]1CC[C@@H]1[C@@H]2C[C@@H](O)[C@]2(C)[C@@H](C3=CC(=O)OC3)CC[C@]12O
AC50: inactive
--
Compound: O=C(O)C(Br)Br
AC50: inactive
--
Compound: C#CC1(O)CCCCC1
AC50: inactive
--
Compound: C[N+](C)=CCl
AC50: inactive
--
Compound: C=Cc1cccc(CCl)c1
AC50: inactive
--
Compound: Cc1ccc(OP(=O)(Oc2ccc(C)cc2)Oc2ccc(C)cc2)cc1 (tested in a mixture with another compound)
AC50: inactive
--
Compound: COc1cc(OC)c(OC)cc1C=O
AC50: inactive
--
Compound: CNC(=O)Oc1cc(C)c(SC)c(C)c1
AC50: 27.1 µM (active)
--
Compound: O=[N+]([O-])c1ccc(Cl)cc1
AC50: inactive
--
Compound: Cc1ncc(C[n+]2csc(CCO)c2C)c(N)n1
AC50: inactive
--
Compound: N#Cc1cc(I)c(O)c(I)c1
AC50: inactive
--
Compound: CNC(=N[N+](=O)[O-])NCC1CCOC1 (configuration not stated)
AC50: inactive
--
Compound: C[C@]12CC[C@H]3[C@@H](CC[C@@]45O[C@@H]4C(O)=C(C#N)C[C@]35C)[C@@H]1CC[C@@H]2O
AC50: inactive
--
Compound: CN(C)CCC#N
AC50: inactive
--
Compound: c1ccc(Nc2ccc3ccccc3c2)cc1
AC50: inactive
--
Compound: Nc1ccc([N+](=O)[O-])cc1N
AC50: inactive
--
Compound: O=[N+]([O-])O
AC50: inactive
--
Compound: CC(Cc1ccc(C(C)(C)C)cc1)CN1C[C@@H](C)O[C@@H](C)C1 (some centres not stated)
AC50: 24.7 µM (active)
--
Compound: CSc1nc(N=[N+]=[N-])nc(NC(C)C)n1
AC50: inactive
--
Compound: BrCBr
AC50: inactive

---

# Experiment: CCTE_Shafer_MEA_dev_per_network_spike_spike_number_mean: CCTE's Neural Network Formation Assay for Mean Number of Spikes in a Network Spike, Shafer Lab (AID 2284053)
The source made the active and inactive calls. The calls were made as follows: active = hit-call score of the fitted dose curve at least 0.9, where 1 is the maximum; inactive = score below 0.9.
Outcomes: y for active, n for inactive

Compound: O.O.O.O.O.[Cd+2].[Cd+2].[Cl-].[Cl-].[Cl-].[Cl-]
Label Value: y

Compound: CC1(C)[C@@H](C=C(Cl)Cl)[C@@H]1C(=O)O[C@@H](C#N)c1ccc(F)c(Oc2ccccc2)c1
Label Value: y

Compound: CP(=O)(O)CCC(N)C(=O)O (stereo not given)
Label Value: n

Compound: CCC1(c2ccccc2)C(=O)NC(=O)NC1=O
Label Value: n

Compound: CCOP(=O)(OCC)SCSC(C)(C)C
Label Value: n

Compound: CC1CCCC1.[C-]#[O+].[C-]#[O+].[C-]#[O+].[Mn]
Label Value: n

Compound: C[n+]1ccc(-c2ccccc2)cc1
Label Value: n

Compound: NCCc1cc(O)c(O)cc1O
Label Value: y

Compound: CCOP(=O)(Oc1cnc(C(C)(C)C)nc1)OC(C)C (stereo not given)
Label Value: n

Compound: CCOP(=O)(O)OCC (tested in a mixture with another compound)
Label Value: n

---

# Target Or System: Cellular tumor antigen p53 (Homo sapiens)
# Experiment: TOX21_p53_BLA_p2_ratio: Tox21 HCT-116 p53 Agonism Beta-lactamase Assay, Ratio, Phase 2 (AID 2283592)
# Method: TOX21_p53_BLA_p2 is a cell-based, single-readout assay that uses HCT116, a human intestinal cell line, […] in a 1536-well plate.TOX21_p53_BLA_p2_ratio is an assay readout measuring reporter gene via receptor activity and designed using inducible reporter (beta lactamase induction) detected with GAL4 b-lactamase reporter gene. […] This assay endpoint, TOX21_p53_BLA_p2_ratio, was analyzed in the positive analysis fitting direction relative to DMSO as the negative control and baseline of activity. […]
Inconclusive results are not listed. Activity calls are given as the source filed them. Rule for the calls: active = hit-call score of the fitted dose curve at least 0.9, where 1 is the maximum; inconclusive = response in the unintended direction; inactive = score below 0.9.

Molecule: COC(=O)C(c1ccccc1)C1CCCCN1 (centres undefined)
Target Or System: Cellular tumor antigen p53 (Homo sapiens)
AC50: inactive
//
Molecule: BrCCc1ccccc1
Target Or System: Cellular tumor antigen p53 (Homo sapiens)
AC50: inactive
//
Molecule: CCSC(=O)Cl
Target Or System: Cellular tumor antigen p53 (Homo sapiens)
AC50: inactive
//
Molecule: O=Cc1ccc(Cl)cc1Cl
Target Or System: Cellular tumor antigen p53 (Homo sapiens)
AC50: inactive
//
Molecule: CCN
Target Or System: Cellular tumor antigen p53 (Homo sapiens)
AC50: inactive
//
Molecule: CCCN(CCC)CCc1c[nH]c2ccccc12
Target Or System: Cellular tumor antigen p53 (Homo sapiens)
AC50: inactive
//
Molecule: Fc1ccc(C(OCCN2CCN(CCCc3ccccc3)CC2)c2ccc(F)cc2)cc1
Target Or System: Cellular tumor antigen p53 (Homo sapiens)
AC50: 33.7 µM (active)
//
Molecule: CCCCCCCCCCCCCC[P+](CCCCCC)(CCCCCC)CCCCCC (tested in a mixture with another compound)
Target Or System: Cellular tumor antigen p53 (Homo sapiens)
AC50: 21.4 µM (active)
//
Molecule: ClCC(Cl)Cl
Target Or System: Cellular tumor antigen p53 (Homo sapiens)
AC50: inactive
//
Molecule: CC(O)CN(CC(C)O)CC(C)O (centres undefined)
Target Or System: Cellular tumor antigen p53 (Homo sapiens)
AC50: inactive
//
Molecule: CC(C)NCC(O)c1ccc(N)c(C#N)c1 (centres undefined)
Target Or System: Cellular tumor antigen p53 (Homo sapiens)
AC50: inactive
//
Molecule: Cl/C=C\Cl
Target Or System: Cellular tumor antigen p53 (Homo sapiens)
AC50: inactive
//
Molecule: O=Cc1ccccc1
Target Or System: Cellular tumor antigen p53 (Homo sapiens)
AC50: inactive
//
Molecule: COC(=O)[C@H]1[C@@H](OC(=O)c2ccccc2)C[C@@H]2CC[C@H]1N2C
Target Or System: Cellular tumor antigen p53 (Homo sapiens)
AC50: inactive
//
Molecule: Nc1ccccc1C(=O)OCC=Cc1ccccc1
Target Or System: Cellular tumor antigen p53 (Homo sapiens)
AC50: inactive
//
Molecule: Clc1cc(Cl)c(-c2cc(Cl)c(Cl)cc2Cl)cc1Cl
Target Or System: Cellular tumor antigen p53 (Homo sapiens)
AC50: inactive
//
Molecule: COC(=O)[C@]12CCC(C)(C)C[C@H]1[C@H]1C(=O)C=C3[C@@]4(C)C=C(C#N)C(=O)C(C)(C)[C@@H]4CC[C@@]3(C)[C@]1(C)CC2
Target Or System: Cellular tumor antigen p53 (Homo sapiens)
AC50: 29.2 µM (active)
//
Molecule: CCOP(=S)(OCC)Oc1cc(C)nc(N(CC)CC)n1
Target Or System: Cellular tumor antigen p53 (Homo sapiens)
AC50: inactive
//
Molecule: Cc1ncc2n1-c1ccc(Cl)cc1C(c1ccccc1F)=NC2
Target Or System: Cellular tumor antigen p53 (Homo sapiens)
AC50: inactive
